# target.entity: Neuronal acetylcholine receptor; alpha9/alpha10 (Homo sapiens) (UniProt Q9UGM1+Q9GZZ6)
# run.description: Antagonist activity at human alpha9alpha10 nAChR expressed in Xenopus laevis oocytes assessed as inhibition of ACh-induced current amplitude at -80 mV holding potential at 100 nM by two-electrode voltage clamp method
# Type: cell-based
# run.parameters: Oocyte, filed as antagonist
Positions of bridges follow the written chain, without caps; N, C: chain ends. Non-standard residues stand in square brackets, D forms with d. Residues, ends and D or L forms follow the SMILES beside them. ξ: configuration not given here. ξDab = NCCC(N)C(=O)O
measure.name: inhibition

Query :: Please look up its inhibition: CC[C@H](C)[C@@H]1NC(=O)[C@H](CC(=O)O)NC(=O)[C@@H]2CCCN2C(=O)[C@H](CC(N)=O)NC(=O)[C@H](CC(N)=O)NC(=O)[C@H](C(C)C)NC(=O)[C@H](CO)NC(=O)[C@@H]2CSSC[C@H](NC(=O)CN)C(=O)N[C@@H](CSSC[C@@H](C(N)=O)NC1=O)C(=O)NC(CCN)C(=O)N[C@@H](Cc1cnc[nH]1)C(=O)N1CCC[C@H]1C(=O)N[C@@H](C)C(=O)N2 (stereo partly specified) (H-GCC[ξDab]HPACSVNNPDIC-NH2; disulfide 2-8, 3-16)
Result :: > 85%

###

# target.entity: Neuronal acetylcholine receptor; alpha9/alpha10 (Homo sapiens) (UniProt Q9UGM1+Q9GZZ6)
# run.description: Antagonist activity at human alpha9alpha10 nAChR expressed in Xenopus laevis oocytes assessed as inhibition of ACh-induced current amplitude at -80 mV holding potential at 100 nM by two-electrode voltage clamp method
# Format: cell-based
# run.parameters: Oocyte
Positions of bridges follow the written chain, without caps; N, C: chain ends. Non-standard residues stand in square brackets, D forms with d. Residues, ends and D or L forms follow the SMILES beside them. Cit = NC(=O)NCCC[C@H](N)C(=O)O
Here the recorded inhibition is given for each entry.

Previously resolved entries follow.
Query :: Report inhibition for CC[C@H](C)[C@@H]1NC(=O)[C@H](CC(=O)O)NC(=O)[C@@H]2CCCN2C(=O)[C@H](CC(N)=O)NC(=O)[C@H](CC(N)=O)NC(=O)[C@H](CCCNC(N)=O)NC(=O)[C@H](CO)NC(=O)[C@@H]2CSSC[C@H](NC(=O)CN)C(=O)N[C@@H](CSSC[C@@H](C(N)=O)NC1=O)C(=O)N[C@@H](CO)C(=O)N[C@@H](Cc1cnc[nH]1)C(=O)N1CCC[C@H]1C(=O)N[C@@H](C)C(=O)N2 (H-GCCSHPACS[Cit]NNPDIC-NH2; disulfide 2-8, 3-16) please.
Result :: < 5%

Query :: // inhibition lookup, key: CC[C@H](C)[C@@H]1NC(=O)[C@H](CC(=O)O)NC(=O)[C@@H]2CCCN2C(=O)[C@H](CC(N)=O)NC(=O)[C@H](CC(N)=O)NC(=O)[C@H](CC(=O)O)NC(=O)[C@H](CO)NC(=O)[C@@H]2CSSC[C@H](NC(=O)CN)C(=O)N[C@@H](CSSC[C@@H](C(N)=O)NC1=O)C(=O)N[C@@H](CO)C(=O)N[C@@H](Cc1cnc[nH]1)C(=O)N1CCC[C@H]1C(=O)N[C@@H](C)C(=O)N2 (H-GCCSHPACSDNNPDIC-NH2; disulfide 2-8, 3-16)
Result :: < 5%

Others:
Query :: I'd like to know its inhibition. The molecule in question is CC[C@H](C)[C@@H]1NC(=O)[C@H](CC(=O)O)NC(=O)[C@@H]2CCCN2C(=O)[C@H](CC(N)=O)NC(=O)[C@H](CC(N)=O)NC(=O)[C@H](CCCCN)NC(=O)[C@H](CO)NC(=O)[C@@H]2CSSC[C@H](NC(=O)CN)C(=O)N[C@@H](CSSC[C@@H](C(N)=O)NC1=O)C(=O)N[C@@H](CO)C(=O)N[C@@H](Cc1cnc[nH]1)C(=O)N1CCC[C@H]1C(=O)N[C@@H](C)C(=O)N2 (H-GCCSHPACSKNNPDIC-NH2; disulfide 2-8, 3-16)
Result :: < 5%
